assay: melting temperature; fluorescence melt of hairpins on a sequencing array, two-state fit, raised by 9.35 °C to match UV melts; conditions: sodium 0.088 M
Quantity Kind: Tm (°C)
One number for each entry, in °C.

Sample answers from the record:
{"Sequence Text": "GTGTTCCCGAAAGGGCAC (((..(((....))))))", "Tm / °C": 46.1}
{"Sequence Text": "GCGATCGAAAGATGTCGC ((((((....)))..)))", "Tm / °C": 43}
{"Sequence Text": "GCTACGCGAAAGCCTAGC ((((.((....)).))))", "Tm / °C": 45.6}
{"Sequence Text": "GATCGTACAGACGATC ((((((....))))))", "Tm / °C": 52.5}
{"Sequence Text": "GCTTCGTCGAAAGACAGC (((..(((....))))))", "Tm / °C": 34.5}

Please give Tm, item by item, for the list that follows.
1. GATCAGTGGGCTGATC ((((((....))))))
2. GCCACTGGAAACAGTAGC ((.((((....)))).))
3. GGCAAGCGAAAGCTGCC (((.(((....))))))
4. GATCGGTGAGCCGATC ((((((....))))))
5. GCTAGACGAAAGTCGAGC (((.(((....))).)))
6. GAATCCGAAAGGACTTC ((((((....))).)))

(A)
1: 54.4; 2: 40.5; 3: 68.9; 4: 60.8; 5: 60.2; 6: 35.8

For every record below, what is its Tm?
1. CGCGGAACTTCCGCG ((((((...))))))
2. GTTGACGGAAACGTCGAC ((.((((....)))).))
3. GATCTTGTAAAAGATC ((((((....))))))
4. GATCGCTTCGGCGATC ((((((....))))))

(A)
61.3
54.8
52.8
67.6

Each sequence below has a reported value. Please supply its Tm.
1. GAAGCCGAAAGGCCGTTC ((((((....)))..)))
2. GGGGACGAAAGTCAGCCC ((((((....)))..)))
3. GCGCGGCGAAAGCAGGGC ((.(.((....)).).))
4. GATCAGACGGCTGATC ((((((....))))))

(A)
[26.6, 49.5, 63.2, 51.7]

----------
test: folding enthalpy; higher = less favourable; fluorescence melt of hairpins on a sequencing array, two-state fit; conditions: sodium 0.088 M
Give folding enthalpy for every item shown.
Give bare numbers, in kcal/mol.

{"Sequence Text": "GCATACCGAAAGGTTTGC (((.(((....))).)))", "folding enthalpy [kcal/mol]": -42.2}
{"Sequence Text": "GATGAAGGAAACCTCATC (((((.(....).)))))", "folding enthalpy [kcal/mol]": -24.7}
{"Sequence Text": "GTGCACGGAAACGTACAC (((.(((....))).)))", "folding enthalpy [kcal/mol]": -31.8}
{"Sequence Text": "GCTGATGCGAAAGCAAGC (((..(((....))))))", "folding enthalpy [kcal/mol]": -19.4}
{"Sequence Text": "GTATTTGGAAACAAGTAC (((.(((....))).)))", "folding enthalpy [kcal/mol]": -20.6}

The following sequences each have a reported value; give each one's folding enthalpy.
1. GATCCCCGGGGGATC ((((((...))))))
2. GTGCCGGGAAACTGGCAC (((((.(....).)))))
3. GATCACCTGCGTGATC ((((((....))))))
4. GTGTGCGAAAGCAGTCAC ((((((....)))..)))
5. CGCACGGAAACGTGTGCG ((((((....)))..)))
6. GGTGTCGAAAGACGAACC ((((((....)))..)))
7. GCCCAGCGAAAGCAGTGC ((.(.((....)).).))
8. GTGGGCGGAAACGTCCAC ((((.((....)).))))

(A)
1. -35.3
2. -37
3. -48.3
4. -16.5
5. -17.6
6. -18.8
7. -13.3
8. -41.7

Batch lookup, folding enthalpy per entry.
1. GGTAAAGGAAACTTTACC (((((((....)))))))
2. GCTGAGCGAAAGCTGTGC ((..(((....)))..))
3. GTAATAGGAAACTGTTAC ((((.((....)).))))
4. GGCCCTGGAAACGGGGTC (.(((.(....).))).)
5. GGTTGTGAAAACAACC ((((((....))))))
6. GGGGTGACGAAAGTCCCC (((..(((....))))))
7. GGGATACCGAAAGGTCCC (((..(((....))))))
8. GATCTTTGCTAAGATC ((((((....))))))

(A)
-47.8
-17.8
-24.9
-30.9
-40.1
-31.8
-17.4
-35.8

Respectfully, I request folding enthalpy for each entry included below.
1. GATCTAACGTAGATC ((((((...))))))
2. GCGTGTCTACGC ((((....))))
3. GCCCAGCGAAAGCTGGC (((.(((....))))))
4. GTATAAGGAAACTTATGC (.(((((....))))).)

(A)
1. -24.5
2. -25.8
3. -9.03
4. -18.5

----------
Kindly supply the reported folding enthalpy values for the records listed here.
assay: folding enthalpy; higher = less favourable; fluorescence melt of hairpins on a sequencing array, two-state fit; settings: sodium 0.088 M
One number for each entry, in kcal/mol.

Provide folding enthalpy values for the following items, in order.
1. GTTGACGAAAGTCAGAAC ((((((....)))..)))
2. GCCCTCGAAAGAGAAGGC ((((((....)))..)))
3. GGATAATCGAAAGATTCC (((..(((....))))))

(A)
1. -10.4
2. -22.2
3. -14

Provide each entry's folding enthalpy from the list below.
1. GGTAACGGAAACGCTACC ((((.((....)).))))
2. GTGTTATCGAAAGATCAC (((..(((....))))))
3. GATCTGCATTCAGATC ((((((....))))))
4. GATCTTCGTCAAGATC ((((((....))))))
5. GATGATGGAAACACCATC ((((.((....)).))))
6. CGCTGCCGGAAACGGGCG (((..(((....))))))
7. GGTTCGGGAAACCGAGCC ((.((((....)))).))

(A)
-29.7
-27.6
-39.6
-33.5
-20.8
-22.8
-40.4

Please go through the list and note folding enthalpy for each sequence.
1. GGGACGGGAAACCACCCC (((..((....))..)))
2. GTTTGCGGAAACGTGAAC (((..((....))..)))
3. GTGTGTGGAAACATACAC ((((.((....)).))))
4. GATCGGATGACCGATC ((((((....))))))
5. GAGAGACGAAAGTCACTC (((.(((....))).)))
6. GCTCAGCGAAAGCAGAGC ((((.((....)).))))
7. GCACTCCGAAAGGATTGC (((.(((....))).)))

(A)
1. -18.4
2. -30.7
3. -39.6
4. -29.8
5. -35.1
6. -36.3
7. -28.1

Go through the list and state folding enthalpy for each entry.
1. GAGGTTGGAAACAACCCC (.(((((....))))).)
2. GGGTTTGGAAACGAACCC (((((.(....).)))))
3. GCCTCATCGAAAGATGGC (((..(((....))))))
4. GCCCCCGAAAGGGTGGC ((((((....))).)))
5. GGTGGCGAAAGCCAACC ((((((....))).)))
6. GCTGGGACGAAAGTCAGC (((..(((....))))))
7. CGCGGACCAATCCGCG ((((((....))))))

(A)
[-13.2, -59.2, -10.1, -21, -16.9, -19.3, -39.2]

(Q) Name the reported folding enthalpy value associated with the sequence GCGGGGCGAAAGCCTAGC ((..(((....)))..))
(A) -19.2

----------
Can you tell me Tm for the items I'm about to list?
assay: melting temperature; fluorescence melt of hairpins on a sequencing array, two-state fit, raised by 9.35 °C to match UV melts; settings: sodium 0.088 M
Numbers only, in °C.

Dear reader, for each entry below, please note its Tm.
1. GATCTATTACTAGATC ((((((....))))))
2. TTTTCGAAAGAAAA (((((....)))))

(A)
1: 39.2; 2: 37.8

For every item below, please supply its Tm.
1. GCAAACGAAAGTTTGTGC ((((((....)))..)))
2. GTGGGGGGAAACTCCCAC (((((.(....).)))))
3. GATCTTCAATAAGATC ((((((....))))))
4. GCGTTTGGAAACAAGTGC ((..(((....)))..))
5. GATCCTCGTAAGGATC ((((((....))))))
6. GCGACGAGTCGC ((((....))))
7. GTAGTTGGAAACAGCTAC ((((.((....)).))))

(A)
1. 52.8
2. 56.2
3. 39.8
4. 31.4
5. 54.5
6. 60.6
7. 42.9

This collection of values is drawn from the array DNA melting data of Ke et al. (doi:10.1101/2024.01.08.574731).
